# Procedure summary: COS7 lysate on small-molecule microarray, probe aHis, 635 nm (AID 1123);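 further: z-score combines 667nm fluorescence intensity with signal-to-noise per printed compound spot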
# Assay conditions: COS7 cell lysate, fluorescence, higher = more signal
Quick rule: composite z-score of at least -0.2 means yes, below that means no.

> print(dat)
                            molecule.smiles  label.value
1  CO[C@H]1COC(=O)[C@H](C)NC(=O)CC=C[C@@H](C)[C@H](OC)COC(=O)[C@@H](OCc2ccccc2)C=C[C@@H]1C           no
2  COC(=O)CC=C[C@@H](C)[C@H](OCc1cccc(-c2ccccc2)c1)C1CCCCC1          yes
3        O=C(C=Cc1ccc2c(c1)OCO2)c1ccc(F)cc1           no
4  CON=C[C@@H](NS(=O)(=O)c1ccc(C)cc1)[C@H](C)C=CCC(=O)OC          yes
5  O=c1n(Cc2cc3c(cc2Cl)OCO3)c(=O)n2n1CC[C@@H]1C(=NOCc3ccccc3)[C@H]3O[C@H]3[C@@H](O)[C@@H]12          yes
6  CCN1C(=O)[C@H]2[C@H]3[C@H](O)[C@H](O)CC(=O)[C@H]3CC[C@H]2C1=O           no

Exercise: Decide: is the reported value of composite z-score for CCc1cc2c(nc1CC)CCN(CCC(C)=NO[C@@H](C)c1cn([C@H](CO)Cc3ccccc3)nn1)C2 equal to or greater than -0.2?
Solution: yes

Exercise: Consider next the compound CCc1cc2c(nc1CC)CCN(CCC(C)=NO[C@H](C)c1cn([C@@H]3COC[C@H]3O)nn1)C2 in the same way.
Solution: no
